# Tested on: Human immunodeficiency virus 1
# method: Antiviral activity against HIV1 in human C8166 cells assessed as prevention of virus-induced cytopathic effect
# Format: functional, organism-based
# condition details: Human immunodeficiency virus 1, C8166
Hi there, I'd appreciate the recorded pEC50 for every entry that follows.
Note: pEC50 values are expressed as the negative base-10 logarithm of concentration in M.

Exercise: Which value of pEC50 has been reported for COc1cc2c(c(O)c1OC)-c1c(cc(OC)c(OC)c1OC)[C@@H](OC(C)=O)[C@H](C)[C@H](C)[C@@H]2OC(=O)/C=C/c1ccccc1 [KADANGUSTIN D] in the records?
Solution: 4.59

Exercise: Again, but for COc1ccc(CC(C)C(C)C(O)c2cc(O)c(OC)c(OC)c2)cc1OC (centres undefined) [KADANGUSTIN H]
Solution: 4.57

Exercise: Query COc1c2c(cc3c1-c1c(cc4c(c1OC)OCO4)[C@@H]1O[C@H]3[C@H](C)[C@@H]1C)OCO2 [EPOXIDESCHISANDRIN C] next
Solution: 5.03

Exercise: Param item: C/C=C(/C)C(=O)O[C@@H]1c2cc(OC)c(OC)c(OC)c2-c2c(cc3c(c2OC)OCO3)[C@@H](OC(C)=O)[C@H](C)[C@]1(C)O [KADSURARIN]
Solution: 3.77

Exercise: Follow-up item: COc1c2c(cc3c1-c1c(cc4c(c1OC)OCO4)[C@@H](O)[C@@H](C)[C@@H](C)C3)OCO2 [GOMISIN R]
Solution: 4.26

Exercise: Would you mind doing COc1ccc([C@H]2Oc3c(OC)cc(C=O)cc3[C@@H]2C)cc1O [PERSEAL F] as well?
Solution: 4.39

Exercise: Follow-up item: C/C=C(/C)C(=O)Oc1c(OC)c(OC)cc2c1-c1c(cc(O)c(OC)c1OC)[C@@H](O)[C@H](C)[C@H](C)C2 [SCHISANTHERIN F]
Solution: 4.02

Exercise: Next compound up: COc1cc2c(c(O)c1OC)-c1c(cc(OC)c(OC)c1OC)[C@@H](OC(C)=O)[C@H](C)[C@H](C)[C@@H]2OC(=O)c1ccccc1 [KADANGUSTIN E]
Solution: 4.22

Exercise: Moving on to COc1cc(C[C@@H](C)[C@@H](C)Cc2ccc(O)c(OC)c2)ccc1O [MESODIHYDROGUAIARETIC ACID]
Solution: 4.81

Exercise: Now consider COc1cc2c(c(O)c1OC)-c1c(cc(O)c(OC)c1OC)[C@@H](O)[C@H](C)[C@H](C)C2 [DEANGELOYLSCHISANTHERIN F] .
Solution: 3.70

Exercise: Field entry: COc1ccc(C(c2ccc(OC)c(OC)c2)C(C)C(C)CO)cc1OC (centres undefined) [KADANGUSTIN J]
Solution: 4.35

Exercise: // same read-out, input: C/C=C(\C)C(=O)O[C@@H]1c2cc(OC)c(OC)c(O)c2-c2c(cc(OC)c(OC)c2OC)[C@@H](OC(C)=O)[C@H](C)[C@@H]1C [KADANGUSTIN G]
Solution: 4.59

Exercise: Another compound to look at: COc1c2c(cc3c1-c1c(cc4c(c1OC)OCO4)[C@@H](O)[C@@H](C)[C@@H](C)[C@@H]3O)OCO2 [SCHISANTHERIN P]
Solution: 3.81

// data source = ChEMBL document CHEMBL1149833
